Source of measurements: ChEMBL document CHEMBL3433997

Biological target: Hexose transporter 1 (Plasmodium falciparum) (UniProt O97467)
Assay: ST_JUDE_LEISH: Cytotoxicity at 2uM final concentration against transgenic Leishmania Mexicana promastigotes LmPfHT that are glucose transport deficient and complemented with the Plasmodium falciparum hexose transporter. Activity is measured by DNA content using SYBR green in vitro
Format: functional
experimental.readout: inhibition (%)

CC(=O)Nc1ccc(CN2CCN(C(c3ccc(F)cc3)c3ccc(F)cc3)CC2)cc1
3.45
CCOC(=O)c1cc2c(CCN3C(=O)c4ccccc4C3=O)cn(C)c2cc1-c1ccncc1
91
Cc1ccc(Nc2nc3cc(N(C)c4ccnc(Nc5cccc(CCS(C)(=O)=O)c5)n4)ccc3n2C)cc1
7.25
O=S(=O)(Nc1ccc(-c2ccc(CN3CCCC3)cc2)cc1)c1cccc2cccnc12
85.2
CC(C)CCCC(C)NC[C@@H](O)[C@H](Cc1ccccc1)NC(=O)c1cc(N2CCCC2=O)cc(N(c2ccccc2)S(C)(=O)=O)c1 (some centres undefined)
2.61
FC(F)(F)c1ccccc1OCc1cc(-c2ccncc2)c(COc2ccccc2C(F)(F)F)cc1C1=CCNCC1
2.17
COc1cc(CN2CCC(CO)(Cc3cccc(C(F)(F)F)c3)CC2)c(Cl)cc1O
-1.69
O=C(c1ccc(Cl)cc1)C1CCN(CCCOc2ccc3c(c2)CCNCC3)CC1
4.76
CC1CCC(NCc2ccc3c(CNC4CCC(C)CC4)c(O)ccc3c2O)CC1 (centres undefined)
-0.12

====

Target: Solute carrier family 2, facilitated glucose transporter member 1 (Homo sapiens) (UniProt P11166)
Sequence (P11166 whole entry): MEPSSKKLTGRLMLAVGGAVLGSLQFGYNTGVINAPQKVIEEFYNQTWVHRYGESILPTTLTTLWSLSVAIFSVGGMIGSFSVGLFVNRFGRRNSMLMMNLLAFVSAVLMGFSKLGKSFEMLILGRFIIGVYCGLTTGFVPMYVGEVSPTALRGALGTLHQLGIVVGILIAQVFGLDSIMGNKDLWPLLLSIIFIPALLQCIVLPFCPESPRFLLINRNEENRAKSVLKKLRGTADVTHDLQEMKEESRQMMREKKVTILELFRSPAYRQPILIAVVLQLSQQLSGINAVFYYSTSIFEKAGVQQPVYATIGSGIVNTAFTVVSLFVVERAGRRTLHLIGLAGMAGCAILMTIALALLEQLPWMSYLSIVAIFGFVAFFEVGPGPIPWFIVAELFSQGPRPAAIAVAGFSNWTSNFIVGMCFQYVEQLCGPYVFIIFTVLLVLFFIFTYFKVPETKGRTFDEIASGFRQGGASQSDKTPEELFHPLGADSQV
Test: ST_JUDE_LEISH: Cytotoxicity at 2uM final concentration against transgenic Leishmania Mexicana promastigotes LmGLUT1 that are glucose transport deficient and complemented with the human glucose transporter GLUT1. Activity is measured by DNA content using SYBR green in vitro
Format: functional
Measured inhibition, listed per entry for reference.
experimental.readout: inhibition (%)

CCCCNCc1ccc(-c2nc(CN(CCCn3ccnc3)C(=O)C3COc4ccccc4O3)cs2)cc1 (centres undefined)
0.43
CCNC[C@@H](O)[C@H](Cc1ccccc1)NC(=O)c1cc2c3c(c1)c(CC)cn3CCS(=O)(=O)N2C
0.67
N#Cc1ccc(-c2ccc3nc(N4CCCN(C5CCC5)CC4)ccc3c2)cc1
6.14
COc1cc2c(cc1S(=O)(=O)c1ccc(NC(=O)c3ccc4ccccc4c3)cc1)CCN(C)CC2
1.64
O=C(Nc1ccc(F)cc1)NC1CCN(c2ccnc3cc(Cl)ccc23)C1 (centres undefined)
-0.37
O=C(C=Cc1ccc(F)cc1)N1CCN(S(=O)(=O)c2ccc(Cl)cc2)CC1
0.4
O=C(Nc1ccc([N+](=O)[O-])cc1Cl)c1cc2ccccc2cc1O
0.6
CC(C)c1ccc(NC(=O)c2ccc(C(=O)NCC3CCN(CC4CCCCC4)CC3)cc2)cc1
3.12
CCCc1cc(Cc2cnc(N)nc2N)cc(CCC)c1OCCCCC(=O)OCC
6.48
COc1ccc(N2CCN(CCCCNC(=O)c3ccc(NC(=O)c4cccc(Cl)c4)cc3)CC2)c(OC)c1
3.81
CN(C)CC(=O)N(Cc1ccc(Cl)c(Cl)c1)Cc1csc(-c2ccc(CNCc3ccccc3)cc2)n1
3.28
O=C(N[C@@H](Cc1ccccc1)[C@H](O)CNCCC(F)(F)F)c1cccc(OCC2CC2)c1
-0.59
Cc1ccc(CN2CCN(c3cc4c(cc3Cl)CCN4C(=O)Cc3ccc(NC(=O)c4ccc(C(F)(F)F)cc4)cc3)CC2)cc1
6.58
CCNc1cc(C(=O)NC(Cc2ccccc2)C(O)CNC(C)(C)CCCC(C)C)c(F)c(N2CCCS2(=O)=O)c1 (centres undefined)
-2.99
CC(C)NCc1cccc(-c2cccc(NC(=O)c3cccc(C#N)c3)c2)c1
5.22
CCOc1ccc(-c2nonc2NC(=O)c2ccc(OC)cc2)cc1OCC
-1.17
O=C(Nc1ccncc1)c1cn(-c2ccccc2)nc1-c1cccs1
5.19
O=C(Nc1ccc2ccccc2c1)N(CCCn1ccnc1)Cc1csc(-c2ccc(CNCc3ccccc3)cc2)n1
-0.95
CCc1c(CCNCCCCCCNCCc2ccc(Br)cc2)ccc(OC)c1OC
36.3
